assay-protocol: Oral bioavailability in Sprague-Dawley rat at 10 mg/kg
Assay type: ADME, organism-based
settings: in vivo
observable: bioavailability (%)
Give a bare numeral; the unit % is implied.

Recorded bioavailability for Cc1nc(NC(=O)N[C@@H]2CCCC[C@H]2O)ccc1Oc1c[nH]c2ncc(Cl)cc12 , please?
79.2

====

assay-protocol: AUC (0 to t) in Sprague-Dawley rat at 1 mg/kg, iv
Assay type: ADME, organism-based
settings: in vivo
observable: AUC(0-t)

Recorded AUC(0-t) for Cc1nc(NC(=O)N[C@@H]2CCCC[C@H]2O)ccc1Oc1c[nH]c2ncc(Cl)cc12 , please?
526 ng·h/mL

====

assay-protocol: MRT (0 to t) in Sprague-Dawley rat at 1 mg/kg, iv
Type: ADME, organism-based
settings: in vivo
observable: MRT last (h)
Give a bare numeral; the unit h is implied.

Recorded MRT last for Cc1nc(NC(=O)N[C@@H]2CCCC[C@H]2O)ccc1Oc1c[nH]c2ncc(Cl)cc12 , please?
1.6

====

assay-protocol: Apparent volume of distribution in Sprague-Dawley rat at 1 mg/kg, iv
Type: ADME, organism-based
settings: in vivo, read-out: Vz
observable: Vd (L/kg)
Give a bare numeral; the unit L/kg is implied.

Recorded Vd for Cc1nc(NC(=O)N[C@@H]2CCCC[C@H]2O)ccc1Oc1c[nH]c2ncc(Cl)cc12 , please?
3.28

====

assay-protocol: AUC (0 to infinity) in Sprague-Dawley rat at 1 mg/kg, iv
Assay type: ADME, organism-based
settings: in vivo
observable: AUC(0-inf) (ng·h/mL)
Give a bare numeral; the unit ng·h/mL is implied.

Recorded AUC(0-inf) for Cc1nc(NC(=O)N[C@@H]2CCCC[C@H]2O)ccc1Oc1c[nH]c2ncc(Cl)cc12 , please?
527

====

assay-protocol: AUC (0 to infinity) in Sprague-Dawley rat at 10 mg/kg, po
Assay type: ADME, organism-based
settings: in vivo
observable: AUC(0-inf)
Note: state the figure and append the unit.

Recorded AUC(0-inf) for Cc1nc(NC(=O)N[C@@H]2CCCC[C@H]2O)ccc1Oc1c[nH]c2ncc(Cl)cc12 , please?
4170 ng·h/mL

====

assay-protocol: Tmax in Sprague-Dawley rat at 10 mg/kg, po
Format: ADME, organism-based
settings: in vivo
observable: Tmax (h)
Give a bare numeral; the unit h is implied.

Recorded Tmax for Cc1nc(NC(=O)N[C@@H]2CCCC[C@H]2O)ccc1Oc1c[nH]c2ncc(Cl)cc12 , please?
1.13

====

assay-protocol: Clearance in Sprague-Dawley rat at 1 mg/kg, iv
Assay type: ADME, organism-based
settings: in vivo
observable: clearance (L/h/kg)
Give a bare numeral; the unit L/h/kg is implied.

Recorded clearance for Cc1nc(NC(=O)N[C@@H]2CCCC[C@H]2O)ccc1Oc1c[nH]c2ncc(Cl)cc12 , please?
1.91

====

assay-protocol: Cmax in Sprague-Dawley rat at 10 mg/kg, po
Assay type: ADME, organism-based
settings: in vivo
observable: Cmax (ng/mL)
Give a bare numeral; the unit ng/mL is implied.

Recorded Cmax for Cc1nc(NC(=O)N[C@@H]2CCCC[C@H]2O)ccc1Oc1c[nH]c2ncc(Cl)cc12 , please?
1580

====

assay-protocol: Terminal half-life in Sprague-Dawley rat at 1 mg/kg, iv
Assay type: ADME, organism-based
settings: in vivo, read-out: beta t1/2 (converted)
observable: half-life (h)
Give a bare numeral; the unit h is implied.

Recorded half-life for Cc1nc(NC(=O)N[C@@H]2CCCC[C@H]2O)ccc1Oc1c[nH]c2ncc(Cl)cc12 , please?
1.2
